- TARGET_OF_ASSAY: human PD-L1 / Human PD-1 (Homo sapiens (Human), UniProt Q9NZQ7)
- Sequence (Q9NZQ7 19-239): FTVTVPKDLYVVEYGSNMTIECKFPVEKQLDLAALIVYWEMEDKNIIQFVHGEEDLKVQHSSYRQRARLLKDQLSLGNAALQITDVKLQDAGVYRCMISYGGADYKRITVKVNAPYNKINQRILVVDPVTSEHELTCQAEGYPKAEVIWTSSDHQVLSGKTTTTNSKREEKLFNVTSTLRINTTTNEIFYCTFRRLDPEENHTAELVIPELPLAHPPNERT
- ASSAY_COMMENT: Enzyme-Linked Immunosorbent Assay (ELISA), PD-1/PD-L1 binding
- EXPERIMENTAL_CONDITIONS: plate-coated human PD-L1, biotinylated human PD-1
PARAMETER: IC50

Here is how some molecules turned out for IC50.
C[C@@H](O)[C@H](NCc1cc(Cl)c(O[C@H]2CCc3c(-c4cccc(OCCCN5CCC(C)(F)CC5)c4Cl)cccc32)cc1OCc1cncc(C#N)c1)C(=O)NS(C)(=O)=O; < 5 nM
N#Cc1cncc(COc2cc(O[C@H]3CCc4c(-c5cccc(OCCCN6CCC(F)CC6)c5Cl)cccc43)c(Cl)cc2CN[C@H]2CCC(=O)NC2)c1; < 5 nM
N#Cc1cncc(COc2cc(O[C@H]3CCc4c(-c5cccc(OCCCN6CC7(C6)CC(F)(F)C7)c5Cl)cccc43)c(Cl)cc2CN[C@@H]2CC[C@H]2O)c1; < 5 nM

Dear colleague, I am looking for the recorded IC50 of the following molecule: CN1CCC(COc2cccc(-c3cccc4c3CC[C@@H]4Oc3cc(OCc4cncc(C#N)c4)c(CN[C@@H]4CCCC[C@@H]4O)cc3Cl)c2Cl)C1 (stereo partly drawn)
< 5 nM

Would you mind telling me what IC50 value was observed for CC1(F)CCN(CCCOc2cccc(-c3cccc4c3CC[C@@H]4Oc3cc(OCc4cncc(C#N)c4)c(CN[C@@H]4CCC(=O)NC4)cc3Cl)c2Cl)CC1 ?
5 to 500 nM

I would be grateful if you could share the reported IC50 for CCOc1cc(O[C@H]2CCc3c(-c4cccc(OCCCN5CCC5(C)C)c4C)cccc32)c(Cl)cc1CN(C)C(C)CC(=O)O (stereo partly drawn) .
5 to 500 nM
